# Tested on: MRSA (ATCC BAA-1556)
# Set-up: unit not given beside the values
# experimental-conditions: supplementary csv, unit not given
Square brackets hold non-standard residues; d marks the D form. Peptide text beside a SMILES is read from it.
assay-endpoint: MIC MRSA

{"columns": ["compound", "meas-value"],
 "data": [
  ["N=C(N)NCCC[C@@H]1NC(=O)[C@H](CCCNC(=N)N)NC(=O)[C@H](CCCNC(=N)N)NC(=O)[C@H](Cc2c[nH]c3ccccc23)NC(=O)[C@H](Cc2c[nH]c3ccccc23)NC(=O)[C@H](Cc2c[nH]c3ccccc23)NC(=O)[C@H](Cc2c[nH]c3ccccc23)NC(=O)[C@H](Cc2c[nH]c3ccccc23)NC(=O)[C@H](Cc2c[nH]c3ccccc23)NC(=O)[C@H](Cc2c[nH]c3ccccc23)NC(=O)[C@H](CCCNC(=N)N)NC(=O)[C@H](CCCNC(=N)N)NC1=O [5d, [R5W7]] (cyclo(RRRRRWWWWWWW))", ">256"],
  ["N=C(N)NCCC[C@H]1NC(=O)[C@H](Cc2c[nH]c3ccccc23)NC(=O)[C@H](Cc2c[nH]c3ccccc23)NC(=O)[C@H](Cc2c[nH]c3ccccc23)NC(=O)[C@H](Cc2c[nH]c3ccccc23)NC(=O)[C@H](Cc2c[nH]c3ccccc23)NC(=O)[C@H](Cc2c[nH]c3ccccc23)NC(=O)[C@H](Cc2c[nH]c3ccccc23)NC(=O)[C@@H](CCCNC(=N)N)NC(=O)[C@@H](CCCNC(=N)N)NC1=O [3f, [dR3W7]] (cyclo([dR][dR][dR]WWWWWWW))", 64],
  ["N=C(N)NCCC[C@@H]1NC(=O)[C@H](CCCNC(=N)N)NC(=O)[C@H](CCCNC(=N)N)NC(=O)[C@H](CCCNC(=N)N)NC(=O)[C@H](Cc2c[nH]c3ccccc23)NC(=O)[C@H](Cc2c[nH]c3ccccc23)NC(=O)[C@H](Cc2c[nH]c3ccccc23)NC(=O)[C@H](Cc2c[nH]c3ccccc23)NC(=O)[C@H](Cc2c[nH]c3ccccc23)NC(=O)[C@H](Cc2c[nH]c3ccccc23)NC(=O)[C@H](CCCNC(=N)N)NC(=O)[C@H](CCCNC(=N)N)NC1=O [6c, [R6W6]] (cyclo(RRRRRRWWWWWW))", 16],
  ["N=C(N)NCCC[C@@H]1NC(=O)[C@H](CCCNC(=N)N)NC(=O)[C@H](CCCNC(=N)N)NC(=O)[C@H](CCCNC(=N)N)NC(=O)[C@H](Cc2c[nH]c3ccccc23)NC(=O)[C@H](Cc2c[nH]c3ccccc23)NC(=O)[C@H](Cc2c[nH]c3ccccc23)NC(=O)[C@H](Cc2c[nH]c3ccccc23)NC(=O)[C@H](CCCNC(=N)N)NC(=O)[C@H](CCCNC(=N)N)NC1=O [6a, [R6W4]] (cyclo(RRRRRRWWWW))", 8],
  ["N=C(N)NCCC[C@@H]1NC(=O)[C@H](CCCNC(=N)N)NC(=O)[C@H](CCCNC(=N)N)NC(=O)[C@H](Cc2c[nH]c3ccccc23)NC(=O)[C@H](Cc2c[nH]c3ccccc23)NC(=O)[C@H](Cc2c[nH]c3ccccc23)NC(=O)[C@H](Cc2c[nH]c3ccccc23)NC(=O)[C@H](Cc2c[nH]c3ccccc23)NC(=O)[C@H](CCCNC(=N)N)NC1=O [4b, [R4W5]]", 8]
]}
